The reported numbers originate from patent US5116855A.

Target: aldose reductase (Rattus norvegicus, UniProt P07943)
Construct: the lenses were excised and homogenized in cold distilled water; from tissue; host or cells: lens of male SD rats, homogenate supernatant (crude enzyme)
Assay: Inhibitory activity against aldose reductase (crude enzyme from rat lenses, NADPH oxidation at 340 nm, D,L-glyceraldehyde substrate)
Format: biochemical
Conditions: pH 6.2, 10^-5 M; aldose reductase from SD rat lenses, pH 6.2, 30° C.; read-out: Percentage of inhibition (%)
Protocol: The compounds of the present invention were evaluated for the inhibitory activity against aldose reductase according to the following assay procedure. […] The inhibitory activity of the present compounds against aldose reductase was measured using each 1.0 ml of the reaction mixture containing the present compound in the above concentration. In this measurement, the rate of NADPH oxidation was followed by recording the decrease in absorbance at 340 nm. […]
outcomeMeasure: inhibition at 10 µM (%)

// worked examples, inhibition at 10 µM included
CCOc1cc(CCC(C)=C2SC(=S)NC2=O)ccc1OCC(=O)OC | 48.9
CC(C=Cc1ccccc1OCC(=O)O)=C1SC(=S)NC1=O | 95.3
Cc1ccsc1C=CC(CCC(=O)O)=C1SC(=S)NC1=O | 83.6
CC(C=Cc1ccc(OCC(=O)O)cc1)=C1SC(=S)NC1=O (single isomer, unassigned) [21 Isomer A] | 94.9
CCCCCCC(CCc1ccc(CCC(=O)O)cc1)=C1SC(=S)NC1=O (single isomer, unassigned) [33 Isomer A] | 42.9

1. COC(=O)COc1ccc(Cl)cc1C=CC(C)=C1SC(=S)NC1=O
2. CCOc1cc(C=CC(C)=C2SC(=S)NC2=O)ccc1OCC(=O)OC
Request: Of the two listed items, 1 and 2 , which carries the larger inhibition at 10 µM figure? Mark your selection by writing its label.
Response: 1

1. CCCC(=Cc1ccccc1OCC(=O)OC)C=C1SC(=S)NC1=O (single isomer, unassigned) [61 Isomer A]
2. CC(C=Cc1cc(C(F)(F)F)ccc1OCC(=O)O)=C1SC(=S)NC1=O
Request: Of the two listed items, 1 and 2 , which carries the larger inhibition at 10 µM figure? Mark your selection by writing its label.
Response: 2

P. COc1cccc(CCC(C)=C2SC(=S)NC2=O)c1OCC(=O)O
Q. CC(C=Cc1cc(Cl)ccc1OCC(=O)O)=C1SC(=S)NC1=O
Request: Of the two listed items, P and Q , which carries the larger inhibition at 10 µM figure? Mark your selection by writing its label.
Response: Q
(Q: 95.3%, P: 59.2%)

P. COC(=O)COc1ccc(C=CC(C)=C2SC(=S)NC2=O)cc1OC
Q. CC(C=Cc1cc(Br)ccc1OCC(=O)O)=C1SC(=S)NC1=O
Request: I'm curious, which of these has a smaller inhibition at 10 µM number: P or Q ? Mark your selection by writing its label.
Response: P
(P: 54.2%, Q: 95.8%)

* * *

Target: aldose reductase (Rattus norvegicus)
Construct: the lenses were excised and homogenized in cold distilled water; from tissue; host or cells: lens of male SD rats, homogenate supernatant (crude enzyme)
Test: Inhibitory activity against aldose reductase (crude enzyme from rat lenses, NADPH oxidation at 340 nm, D,L-glyceraldehyde substrate)
Format: biochemical
Details: pH 6.2, 10^-6 M; aldose reductase from SD rat lenses, pH 6.2, 30° C.; read-out: Percentage of inhibition (%)
outcomeMeasure: inhibition at 1 µM (%)

// worked examples, inhibition at 1 µM included
CC(C(=O)Nc1ccccc1C(=O)O)=C1SC(=S)NC1=O | 80
COC(=O)COc1ccc(C(F)(F)F)cc1C=CC(C)=C1SC(=S)NC1=O | 45.6
CCCC(=Cc1ccccc1OCC(=O)O)C=C1SC(=S)NC1=O | 77.6
Cc1ccsc1C=CC(CCC(=O)O)=C1SC(=S)NC1=O | 39.8
CC(C=Cc1cc(Cl)cc(Cl)c1OCC(=O)O)=C1SC(=S)NC1=O | 43
CC(C=Cc1ccccc1OCC(=O)O)=C1SC(=S)NC1=O | 79.4

A. COC(=O)COc1ccc(OC)cc1C=CC(C)=C1SC(=S)NC1=O
B. CC(C=Cc1cc(Cl)ccc1OCC(=O)O)=C1SC(=S)NC1=O
C. COc1ccc(C=CC(C)=C2SC(=S)NC2=O)cc1OCC(=O)O
Request: Please list the entries, largest inhibition at 1 µM first. Reply format: the labels, ordered as requested.
Response: B, A, C

* * *

Biological target: aldose reductase (Rattus norvegicus)
Construct: the lenses were excised and homogenized in cold distilled water; from tissue; host or cells: lens of male SD rats, homogenate supernatant (crude enzyme)
Assay: Inhibitory activity against aldose reductase (crude enzyme from rat lenses, NADPH oxidation at 340 nm, D,L-glyceraldehyde substrate)
Format: biochemical
Details: pH 6.2, 10^-5 M; aldose reductase from SD rat lenses, pH 6.2, 30° C.; read-out: Percentage of inhibition (%)
outcomeMeasure: inhibition at 10 µM (%)

// worked examples, inhibition at 10 µM included
CCOC(=O)CCC(C=Cc1ccc(C(=O)OC)cc1)=C1SC(=S)NC1=O | 42.8
O=C(O)CCC(C=Cc1cccs1)=C1SC(=S)NC1=O | 73
CC(C=Cc1cc(C)c(OCC(=O)O)c(C)c1)=C1SC(=S)NC1=O | 89.6
COc1cc(CCC(C)=C2SC(=S)NC2=O)ccc1OCC(=O)O | 78.4
CCCCOC(=O)COc1ccc(Cl)cc1C=CC(C)=C1SC(=S)NC1=O (single isomer, unassigned) [51 Isomer A] | 51.4
COC(=O)c1ccccc1NC(=O)C(C)=C1SC(=S)NC1=O | 84
COC(=O)COc1ccc(C(C)C)cc1C=CC(C)=C1SC(=S)NC1=O (single isomer, unassigned) [62 Isomer A] | 48.3
COC(=O)COc1ccc(OC)cc1C=CC(C)=C1SC(=S)NC1=O | 55.2
CCOC(=O)COc1ccc(C=C(C)C=C2SC(=S)NC2=O)cc1OC | 71.3
CCCCCCC(C=Cc1ccc(OCc2nn[nH]n2)cc1)=C1SC(=S)NC1=O | 62.6

a. CCOC(=O)CCC(C=Cc1ccc(C#N)cc1)=C1SC(=S)NC1=O
b. CCOc1cc(CCC(C)=C2SC(=S)NC2=O)ccc1OCC(=O)O
Request: I'm curious, which of these has a smaller inhibition at 10 µM number: a or b ? Mark your selection by writing its label.
Response: a
